ASSAY SYSTEM: nNOS (Rattus norvegicus)
Construct: Rat cerebelli were used as the starting tissue; from tissue; host or cells: rat cerebellum (20,000 g supernatant of homogenate)
TEST DESCRIPTION: NOS assay (HTS NOS assay, radioactive arginine, filter plate)
Format: biochemical
CONDITION CONTEXT: enzyme preparation from rat cerebelli
Kindly supply the reported inhibition at 10 µM values for the records listed here.
Give bare numbers, in %.

Solved cases (2 shown):
COMPOUND | ASSAY SYSTEM | inhibition at 10 µM, %
CC#CCn1c(C2CCCN2C(=O)COC)c(-c2ccccc2)c2cc(Cl)ccc21 (stereo not drawn) | nNOS (Rattus norvegicus) | 54
CCOC(=O)CCC(=O)N1CCCC1c1c(-c2ccccc2)c2cc(Cl)ccc2n1CCN(CC)CC (stereo not drawn) | nNOS (Rattus norvegicus) | 34

With those in mind, consider the next compound.
Query :: Give recorded inhibition at 10 µM. CCCCCC(=O)N1CCCC1c1c(-c2ccccc2)c2cc(Cl)ccc2n1CCN(CC)CC (stereo not drawn)
Result :: 35
